Tested on: NCI-H2073 cells (wild-type EGFR human non-small cell lung cancer)
Assay: Cell growth inhibition (Cell Titer-Glo), NCI-H2073
Format: cell-based
Conditions: 72 hours drug treatment, 3 nM to 10 μM
Structures can show the parent of a compound that is named as a salt.
Reported Property: IC50 (nM)
API: value field is a number in nM; no unit string.

For the molecule shown here, C=CC(=O)Nc1cc(Nc2nccc(-c3nc(C)c4ccccn34)n2)c(OC)cc1N(C)CCN(C)C [52. (HCl)n] , give the reported IC50.
220

Note, next up: C=CC(=O)Nc1cc(Nc2nccc(N3CC4(CC4)c4ccccc43)n2)c(OC)cc1N(C)CCN(C)C [38. (HCl)n]
476

Would you kindly repeat that for C=CC(=O)Nc1cc(Nc2nccc(-n3c(=O)n(C(C)C)c4ccccc43)n2)c(OC)cc1N(C)CCN(C)C ?
155

Next molecule: [2H]C([2H])([2H])N(CCN(C)C)c1cc(OC)c(Nc2nccc(-n3c(=O)n(C)c4ccccc43)n2)cc1NC(=O)C=C [59. (HCl)n]
120

Each recorded value in this set is attributed to patent US11498921B1.
